Target: cAMP-efflux (ABCC4) (Homo sapiens, UniProt O15439)
Construct: from tissue; host or cells: human erythrocyte membranes (inside-out vesicles), pooled donors
Experiment: biochemical
Type: biochemical
Conditions: 28°C; Cheng-Prusoff from IC50
measured-endpoint: Ki (µM)
Quick reminder: number only, in µM, skip the unit.

Consider the compound shown here: "CCCc1nc(C)c2c(=O)[nH]c(-c3cc(S(=O)(=O)N4CCN(CC)CC4)ccc3OCC)nn12" What is its recorded Ki? 5.84

====

Target: cAMP-efflux (ABCC4) (Homo sapiens, UniProt O15439)
Construct: from tissue; host or cells: human erythrocyte membranes (inside-out vesicles), pooled donors
Sequence (O15439 1-1325): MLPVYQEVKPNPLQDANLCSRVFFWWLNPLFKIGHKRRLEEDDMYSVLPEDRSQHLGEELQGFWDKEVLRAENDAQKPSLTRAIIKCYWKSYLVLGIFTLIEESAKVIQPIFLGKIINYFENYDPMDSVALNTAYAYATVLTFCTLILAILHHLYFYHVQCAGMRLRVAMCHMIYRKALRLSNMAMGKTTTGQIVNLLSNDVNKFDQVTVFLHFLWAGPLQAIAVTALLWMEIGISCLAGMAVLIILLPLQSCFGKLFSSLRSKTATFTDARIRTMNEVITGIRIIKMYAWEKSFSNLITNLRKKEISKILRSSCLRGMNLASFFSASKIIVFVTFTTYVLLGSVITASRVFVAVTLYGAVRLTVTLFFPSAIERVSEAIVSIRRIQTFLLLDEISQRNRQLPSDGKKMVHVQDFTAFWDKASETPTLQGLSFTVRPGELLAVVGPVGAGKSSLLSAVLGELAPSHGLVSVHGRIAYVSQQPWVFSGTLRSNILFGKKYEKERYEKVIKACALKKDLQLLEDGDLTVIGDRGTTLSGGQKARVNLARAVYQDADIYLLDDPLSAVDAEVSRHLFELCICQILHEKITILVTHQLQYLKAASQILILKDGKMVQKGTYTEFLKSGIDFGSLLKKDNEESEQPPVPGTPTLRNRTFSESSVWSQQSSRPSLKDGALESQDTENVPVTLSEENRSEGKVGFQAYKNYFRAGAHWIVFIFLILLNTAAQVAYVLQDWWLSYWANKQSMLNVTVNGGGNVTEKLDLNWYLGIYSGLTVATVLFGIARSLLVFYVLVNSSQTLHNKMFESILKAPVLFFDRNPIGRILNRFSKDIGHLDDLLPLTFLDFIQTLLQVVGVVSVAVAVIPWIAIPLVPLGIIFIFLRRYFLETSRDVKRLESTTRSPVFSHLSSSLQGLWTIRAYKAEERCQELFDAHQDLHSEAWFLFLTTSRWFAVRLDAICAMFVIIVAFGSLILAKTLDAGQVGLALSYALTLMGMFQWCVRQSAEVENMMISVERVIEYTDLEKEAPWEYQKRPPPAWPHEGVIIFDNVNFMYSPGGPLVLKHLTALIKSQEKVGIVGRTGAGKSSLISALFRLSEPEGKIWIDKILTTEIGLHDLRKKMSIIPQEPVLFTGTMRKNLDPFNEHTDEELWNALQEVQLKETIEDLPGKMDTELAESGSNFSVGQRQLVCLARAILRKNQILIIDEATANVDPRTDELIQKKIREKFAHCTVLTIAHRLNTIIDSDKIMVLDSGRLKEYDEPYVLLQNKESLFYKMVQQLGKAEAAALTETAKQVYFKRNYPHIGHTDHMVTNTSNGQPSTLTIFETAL
Assay: biochemical
Format: biochemical
Settings: 32°C; Cheng-Prusoff from IC50
measured-endpoint: Ki (µM)
Field: numeric (µM). Do not append units.

Value lookup for Ki; key = CCCc1nc(C)c2c(=O)[nH]c(-c3cc(S(=O)(=O)N4CCN(CC)CC4)ccc3OCC)nn12 [Vardenafil] 7.86

====

Target: PDE3
Settings: read-out: Ki PDE3-inhibition; 34°C; Cheng-Prusoff from IC50
Experimental: The assays were performed in triplicates at three different days. […] The reaction was started by adding either a solution containing 0.016 units/μg protein of PDE3 (Abcam, Cambridge United Kingdom), or 0.022 units/μg protein of PDE5 (Sigma-Aldrich, St. Louis, MO, United States), to the Eppendorf tubes. Parallels for cAMP-metabolism included PDE3 only and parallels for cGMP-metabolism included PDE5 only. […] Samples were analyzed for cGMP/GMP and cAMP/AMP content, using MS.
measured-endpoint: pKi
Formally, pKi is defined as -log10 of the concentration c, with c in mol/L.

Look at this molecule and give its reported pKi. "CCCc1nc(C)c2c(=O)[nH]c(-c3cc(S(=O)(=O)N4CCN(CC)CC4)ccc3OCC)nn12" 5.94
